biological target: GPR139 (Homo sapiens, UniProt Q6DWJ6); test: GPR139 Agonist titration / agonist counterscreen assay (calcium detection, HEK-GPR139 cells); type: cell-based; set-up: expressed in transfected cells; host or cells: HEK Aequorin cells, Maxcyte transient transfection; settings: GPR139 Agonist Activity
Sequence (Q6DWJ6 whole entry): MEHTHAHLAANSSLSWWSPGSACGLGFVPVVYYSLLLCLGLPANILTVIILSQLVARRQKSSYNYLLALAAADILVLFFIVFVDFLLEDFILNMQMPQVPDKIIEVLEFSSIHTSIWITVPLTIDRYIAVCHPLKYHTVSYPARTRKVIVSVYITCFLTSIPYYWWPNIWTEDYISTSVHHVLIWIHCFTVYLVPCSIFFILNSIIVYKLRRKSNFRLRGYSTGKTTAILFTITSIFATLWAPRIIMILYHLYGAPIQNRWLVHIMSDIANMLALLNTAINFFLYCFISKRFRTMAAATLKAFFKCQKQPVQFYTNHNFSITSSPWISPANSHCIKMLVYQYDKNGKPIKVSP
Property: Hill Slope

>  <Compound>
O=C(CC1C(=O)N(c2ccccc2)C(=O)N1Cc1ccc2c(c1)OCO2)Nc1ccc(Cl)cc1 (stereo not drawn)

>  <Hill Slope>
1.72

$$$$

**Query** Param item = CC1CCCC(NC(=O)CN2CCN(Cc3ccc(F)cc3Cl)C2=O)C1C (stereo not drawn) ; retrieve measured Hill Slope.
**Result** 0.84

**Query** Would you mind doing O=C(Nc1ccc(-c2c[nH]cn2)cc1)C1COc2ccc(F)cc2C1 (stereo not drawn) as well?
**Result** 0.90

**Query** Would you mind doing O=C(CCOc1ccccc1)NCC1COc2ccccc2O1 (stereo not drawn) as well?
**Result** 1.21

**Query** Would you mind doing Cc1nn(-c2ccccc2)nc1C(=O)NNC(=O)CSCc1cccc2ccccc12 as well?
**Result** 0.69

**Query** Would you mind doing Cc1ccc(CNc2nc3ccccc3n2CCN2CCOCC2)cc1 as well?
**Result** 1.55

**Query** Would you mind doing O=C(Cn1ncc2c1-c1ccccc1OC2)Nc1ccc(Cl)cc1 [SR-01000098980] as well?
**Result** 0.43

**Query** Would you mind doing Cc1cc(-c2nnc(NC(=O)CCc3ccccc3)o2)n(C)n1 as well?
**Result** 0.91

**Query** Would you mind doing COc1ccc2cc(CCNC(=O)/C=C\c3ccc4c(c3)OCO4)c(=O)[nH]c2c1 as well?
**Result** 0.49

---

Measured Efficiency Ligand of individual entries
molecular target: GPR139 (Homo sapiens, UniProt Q6DWJ6); test: GPR139 Agonist titration / agonist counterscreen assay (calcium detection, HEK-GPR139 cells); assay type: cell-based; parameters: expressed in transfected cells; host or cells: HEK Aequorin cells, Maxcyte transient transfection; conditions: GPR139 Agonist Activity; ligand efficiency
Kindly provide the number alone.

Here is how some compounds turned out for Efficiency Ligand.
>  <Compound>
Cc1cc(C(=O)CCC(=O)NNC(=O)c2ccc(COc3ccccc3)cc2)c(C)o1

>  <Property>
Efficiency Ligand

>  <Result number>
0.37

$$$$
>  <Compound>
CC(CCc1ccccc1)NC(=O)Cn1cc2c(n1)CCCC2 (centres unmarked)

>  <Property>
Efficiency Ligand

>  <Result number>
0.48

$$$$
>  <Compound>
COc1ccc(C2=NN(CC(=O)NCCCN(C)c3ccccc3)C(=O)CC2)cc1

>  <Property>
Efficiency Ligand

>  <Result number>
0.36

$$$$

**Query** Form field: Efficiency Ligand recorded for Cc1cc(C)c2c(CC(=O)NNC(=O)COc3ccccc3)coc2c1 with GPR139 (Homo sapiens, UniProt Q6DWJ6) (enter value)
**Result** 0.37

**Query** Would you mind doing Cc1ccc(NC(=O)Cn2ncc3c2-c2ccccc2OC3)cc1F as well?
**Result** 0.40

**Query** Would you mind doing CC1C(CC(=O)NCC(=O)CCC2=Cc3ccccc3C2)=Nc2ccccc21 (centres unmarked) as well?
**Result** 0.34

**Query** Would you mind doing CN1CCC(Oc2cc(-c3cn[nH]c3)ccc2NC(=O)C2COc3ccc(F)cc3C2)C1 (centres unmarked) as well?
**Result** 0.35

**Query** Would you mind doing COc1ccccc1NC(=O)NNC(=O)CSc1cc(C)c(Br)cc1C as well?
**Result** 0.43
